# Species on record: Oryctolagus cuniculus
# Experiment notes: Tested for inhibitory activity against angiotensin II induced contraction in rabbit aortic rings
# Format: functional
# Experimental conditions: Aorta, read-out: pA2 (converted)
Binarize Kb at 4 nM; below is MET, at or above is NOT MET.

Lab note: confirm whether the reported Kb for this molecule is below 4 nM, equality not counting. molecule: CCOC(=O)/C=C1\C2C(C(=O)N1Cc1ccc(-c3ccccc3-c3nn[nH]n3)cc1)C1CCC2C1(c1ccccc1)c1ccccc1 (centres undefined)
NOT MET

Input CCOC(=O)/C=C1\C2C(C(=O)N1Cc1ccc(-c3ccccc3-c3nn[nH]n3)cc1)C1C=CC2(OC)CC1 (centres undefined) ; condition: Kb strictly below 4 nM. Does it hold?
NOT MET

Does the reported Kb of the following molecule sit strictly below 4 nM? CCOC(=O)/C=C1\C2C3CCC(C3)C2C(=O)N1Cc1ccc(-c2ccccc2-c2nn[nH]n2)cc1 (centres undefined)
MET

Further cases:
Is it true that Kb reported for CCOC(=O)/C=C1\N(Cc2ccc(-c3ccccc3-c3nnn[nH]3)cc2)C(=O)CC12CCCCC2 is less than 4 nM?
NOT MET

A record lists CCOC(=O)/C=C1\N(Cc2ccc(-c3ccccc3-c3nn[nH]n3)cc2)C(=O)CC1(C)CC (centres undefined) . Is its Kb below 4 nM?
NOT MET

Item CCOC(=O)/C=C1\C2C(C(=O)N1Cc1ccc(-c3ccccc3-c3nn[nH]n3)cc1)C1CCC2C1(C)C (centres undefined) : Kb beneath 4 nM, strictly?
NOT MET

Dear reviewer, please state whether CCCCc1nc(Cl)c(CO)n1Cc1ccc(-c2ccccc2-c2nnn[nH]2)cc1 has Kb strictly beneath 4 nM.
MET

Is 4 nM strictly greater than the molecule's reported Kb? molecule: CCOC(=O)/C=C1/C(C)CC(=O)N1Cc1ccc(-c2ccccc2-c2nn[nH]n2)cc1 (centres undefined)
NOT MET

###

Could you please report measured pIC50 for the items listed next?
# System name: Type-1 angiotensin II receptor (Bos taurus)
# Sequence (P25104 whole entry): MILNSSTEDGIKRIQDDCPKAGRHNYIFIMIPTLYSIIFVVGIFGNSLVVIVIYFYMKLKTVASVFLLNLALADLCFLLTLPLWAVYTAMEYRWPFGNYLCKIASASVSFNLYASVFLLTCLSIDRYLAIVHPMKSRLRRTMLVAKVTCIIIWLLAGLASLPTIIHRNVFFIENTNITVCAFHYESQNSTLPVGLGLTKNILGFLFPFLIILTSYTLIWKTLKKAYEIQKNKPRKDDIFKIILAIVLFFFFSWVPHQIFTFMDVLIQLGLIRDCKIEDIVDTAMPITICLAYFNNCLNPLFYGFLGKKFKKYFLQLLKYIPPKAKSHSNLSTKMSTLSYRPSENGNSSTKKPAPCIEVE
# Experiment notes: Concentration that gives 50% inhibition for binding of 125-I-[Sar1, IIe8] angiotensin to Angiotensin II receptor, type 1 in bovine adrenal cortex membrane.
Give bare numbers, as −log10 of the molar value.

// known answers, use as guide
Endpoint output: pIC50 of CCOC(=O)/C=C1\N(Cc2ccc(-c3ccccc3-c3nnn[nH]3)cc2)C(=O)CC12CCCCC2 . Value?
6.85

Which measured pIC50 value corresponds to CCOC(=O)/C=C1\N(Cc2ccc(-c3ccccc3-c3nn[nH]n3)cc2)C(=O)CC1(CC)CC ?
7.00

Can you share its pIC50? I mean this molecule: CCCCc1nc(Cl)c(CO)n1Cc1ccc(-c2ccccc2-c2nnn[nH]2)cc1 [LOSARTAN]
6.37

Which pIC50 is reported for this molecule? CCOC(=O)/C=C1\N(Cc2ccc(-c3ccccc3-c3nn[nH]n3)cc2)C(=O)CC12CCCC2
6.60

Need pIC50 of CCOC(=O)/C=C1/C(C)CC(=O)N1Cc1ccc(-c2ccccc2-c2nn[nH]n2)cc1 (configuration not stated) , thanks.
5.51

Which measured pIC50 value corresponds to CCOC(=O)/C=C1\N(Cc2ccc(-c3ccccc3-c3nn[nH]n3)cc2)C(=O)CC1(C)CC (configuration not stated) ?
7.22

Then there is this molecule:
Which pIC50 value is on record for CCOC(=O)/C=C1\N(Cc2ccc(-c3ccccc3-c3nnn[nH]3)cc2)C(=O)CC12CCCCCC2 ?
7.22

###

# Organism: Oryctolagus cuniculus
# Experiment notes: Tested for inhibitory activity against angiotensin II induced contraction in rabbit aortic rings
# Format: functional
# Experimental conditions: Aorta, read-out: pA2 (converted)
Can you tell me Kb for the items I'm about to list?

Worked cases, Kb given:
Which Kb value is on record for CCOC(=O)/C=C1\C2C3CCC(O3)C2C(=O)N1Cc1ccc(-c2ccccc2-c2nn[nH]n2)cc1 (stereo unspecified) ?
3.98 nM

Which Kb value is on record for CCOC(=O)/C=C1\N(Cc2ccc(-c3ccccc3-c3nn[nH]n3)cc2)C(=O)CC12CCCCCC2 ?
3.98 nM

May I ask what Kb has been recorded for CCOC(=O)/C=C1\C2CC=CCC2C(=O)N1Cc1ccc(-c2ccccc2-c2nn[nH]n2)cc1 (stereo unspecified) ?
31.6 nM

I would be grateful if you could provide Kb for each of the following entries.
1. CCOC(=O)/C=C1\C2C3C=CC(C3)C2C(=O)N1Cc1ccc(-c2ccccc2-c2nn[nH]n2)cc1 (stereo unspecified)
2. CCOC(=O)/C=C1\C2C3CCC(CC3)C2C(=O)N1Cc1ccc(-c2ccccc2-c2nn[nH]n2)cc1 (stereo unspecified)
3. CCOC(=O)/C=C1\C2C3CCCC(CC3)C2C(=O)N1Cc1ccc(-c2ccccc2-c2nn[nH]n2)cc1 (stereo unspecified)
4. CCOC(=O)/C=C1\N(Cc2ccc(-c3ccccc3-c3nn[nH]n3)cc2)C(=O)CC12CCCC2
5. CCOC(=O)/C=C1\N(Cc2ccc(-c3ccccc3-c3nn[nH]n3)cc2)C(=O)CC1(CC)CC
6. CCOC(=O)/C=C1\C2C3C=CC(CCC3)C2C(=O)N1Cc1ccc(-c2ccccc2-c2nn[nH]n2)cc1 (stereo unspecified)

1. 3.98 nM
2. 10 nM
3. 20 nM
4. 3.16 nM
5. 12.6 nM
6. 39.8 nM

Consider the following items and state reported Kb for each.
1. CCOC(=O)/C=C1\C2C3C=CC(CC3)C2C(=O)N1Cc1ccc(-c2ccccc2-c2nn[nH]n2)cc1 (stereo unspecified)
2. CCOC(=O)/C=C1\C2CCCCC2C(=O)N1Cc1ccc(-c2ccccc2-c2nn[nH]n2)cc1 (stereo unspecified)

6.31 nM
3.98 nM

Value source: ChEMBL document CHEMBL1127002
